Experimental system: full length human TREX1 (Homo sapiens, UniProt Q9NSU2)
Construct: N-terminally His-Tev tagged full length human TREX1; made in house; host or cells: E. coli
Sequence (Q9NSU2 whole entry): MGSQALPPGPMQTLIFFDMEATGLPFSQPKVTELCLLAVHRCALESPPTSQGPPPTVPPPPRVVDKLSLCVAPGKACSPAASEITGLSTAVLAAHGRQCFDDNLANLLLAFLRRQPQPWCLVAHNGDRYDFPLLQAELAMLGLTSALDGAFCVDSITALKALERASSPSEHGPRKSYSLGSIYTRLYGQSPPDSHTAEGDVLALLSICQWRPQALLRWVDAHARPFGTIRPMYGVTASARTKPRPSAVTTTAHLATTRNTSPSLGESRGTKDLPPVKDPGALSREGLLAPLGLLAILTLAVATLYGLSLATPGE
Procedure details: hTREX1 Biochemical Assay (fluorescence, dsDNA substrate degradation)
Experimental setup: biochemical, read-out: hTREX1 IC50
Reported IC50 values follow for various molecules

Cc1nn(C)cc1C(c1cc(F)ccc1C#N)C(C)c1nc(C(=O)Nc2cnoc2)c(O)c(=O)n1C (single isomer, unassigned) [Example 57 D1E2]; < 0.001 µM
CC(c1nc(C(=O)Nc2cnoc2)c(O)c(=O)n1C)C(c1cnc(C(F)(F)F)cn1)c1ccccc1C#N (single isomer, unassigned) [Example 118 D1E1]; 0.001 to 0.01 µM
Cc1cc(C(c2cc(F)ccc2Cl)C(C)c2nc(C(=O)Nc3cnoc3)c(O)c(=O)n2C)n(C)n1 (single isomer, unassigned) [Example 113 D2E2]; > 0.01 µM
CC(c1nc(C(=O)Nc2cnoc2)c(O)c(=O)n1C)C(c1cocn1)c1ccccc1C#N (single isomer, unassigned) [Example 50 D2E2]; > 0.01 µM
COCCn1cc(C(c2cc(F)ccc2C#N)C(C)c2nc(C(=O)Nc3cnoc3)c(O)c(=O)n2C)cn1 (single isomer, unassigned) [Example 18 D1E1]; > 0.01 µM
COCCn1cc(C(c2cc(F)c(F)cc2Cl)C(C)c2nc(C(=O)Nc3cnoc3)c(O)c(=O)n2C)cn1 (single isomer, unassigned) [Example 73 D2E1]; > 0.01 µM
CC(c1nc(C(=O)Nc2cnoc2)c(O)c(=O)n1C)C(c1cnn(C)c1)c1cc(F)c(F)cc1C#N (single isomer, unassigned) [Example 25 D2E2]; > 0.01 µM
CC(c1nc(C(=O)Nc2cnoc2)c(O)c(=O)n1C)C(c1cnn(C(C)C)c1)c1ccccc1C#N (single isomer, unassigned) [Example 105 D1E1]; > 0.01 µM
CCn1cc(C(c2ccc(F)cc2C#N)C(C)c2nc(C(=O)Nc3cnoc3)c(O)c(=O)n2C)c(C)n1 (single isomer, unassigned) [Example 55 D2E1]; > 0.01 µM
CC(c1nc(C(=O)Nc2cnoc2)c(O)c(=O)n1C)C(c1cnn(C(C)C)c1)c1ccccc1C#N (single isomer, unassigned) [Example 105 D2E1]; 0.001 to 0.01 µM

Query :: Name the recorded IC50 of CC(c1nc(C(=O)Nc2cnoc2)c(O)c(=O)n1C)C(c1ccccc1Cl)c1cn(C)nc1F (single isomer, unassigned) [Example 130 D1E2] , assay system full length human TREX1 (Homo sapiens, UniProt Q9NSU2).
Result :: > 0.01 µM

Query :: # assay system full length human TREX1 (Homo sapiens, UniProt Q9NSU2): give IC50 of Cc1cncc(C(c2ccccc2C#N)C(C)c2nc(C(=O)Nc3cnoc3)c(O)c(=O)n2C)n1 (single isomer, unassigned) [Example 53 D2E1]
Result :: > 0.01 µM
